target: Human eIF4E (aa 28-217) / biotin labeled 4G2 peptide (Homo sapiens (Human), UniProt P06730); assay: Human eIF4E/4G2 binding assay (TR-FRET); conditions: Human eIF4E/4G2 TR-FRET binding assay; head says IC50, legend says EC50
Sequence (P06730 28-217): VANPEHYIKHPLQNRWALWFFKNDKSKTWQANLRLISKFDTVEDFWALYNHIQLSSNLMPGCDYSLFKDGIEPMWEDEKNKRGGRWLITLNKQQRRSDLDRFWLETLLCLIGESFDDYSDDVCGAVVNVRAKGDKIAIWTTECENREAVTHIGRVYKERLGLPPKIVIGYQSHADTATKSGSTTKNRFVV

{"columns": ["molecule", "IC50"],
 "data": [
  ["CC(C)Cc1sc(NCc2cccc(O)n2)nc1-c1ccc(Cl)c(Cl)c1 [I-201]", "> 10000 nM"],
  ["CC(C)Cc1sc(N(CCC(=O)O)Cc2cccc(Cl)c2)nc1-c1ccc(Cl)c(Cl)c1 [I-107]", "≤ 1000 nM"],
  ["COc1cc(-c2cnc(Nc3nc(-c4ccc(Cl)c(Cl)c4)c(C(C)C)s3)c(C(=O)O)c2)ccn1 [I-268]", "≤ 1000 nM"],
  ["CC(C)Cc1sc(NCC(C(=O)O)N(C)C)nc1-c1ccc(Cl)c(Cl)c1 (stereo not drawn) [I-116]", "> 10000 nM"],
  ["Cc1ccc(-c2nc(N(CCC(=O)O)Cc3ccccc3)sc2C(C)C)cc1C [I-75]", "1000 to 10000 nM"],
  ["CC(C)Cc1sc(N2CCN(C(=O)c3ncccn3)C(C(=O)O)C2)nc1-c1ccc(Cl)c(Cl)c1 (stereo not drawn) [I-249]", "1000 to 10000 nM"],
  ["COc1cccc(-c2nc(NCC(Cc3cccc(F)c3)C(=O)O)sc2C(C)C)c1 (stereo not drawn) [I-32]", "1000 to 10000 nM"],
  ["CC(C)Cc1sc(N(CCC(=O)NCCCN)Cc2ccccc2)nc1-c1ccc(Cl)c(Cl)c1 [I-192]", "1000 to 10000 nM"],
  ["CC(C)Cc1sc(Nc2cc(C(=O)O)cc(-c3ccccc3)c2)nc1-c1ccc(Cl)c(Cl)c1 [I-215]", "≤ 1000 nM"],
  ["CCOc1ccc(-c2nc(Nc3ncc(-c4cccs4)cc3C(=O)O)sc2CC(C)C)cc1Cl [I-330]", "≤ 1000 nM"],
  ["COc1cccc(-c2nc(NCC(Cc3ccc4[nH]ccc4c3)C(=O)O)sc2C(C)C)c1 (stereo not drawn) [I-37]", "1000 to 10000 nM"],
  ["CC(C)Cc1sc(N(CCCN)Cc2ccccc2)nc1-c1ccc(Cl)c(Cl)c1 [I-191]", "1000 to 10000 nM"],
  ["CC(C)c1sc(NCC(Cc2cccc(F)c2)C(=O)O)nc1-c1ccc(Cl)c(Cl)c1 (stereo not drawn) [I-5]", "1000 to 10000 nM"],
  ["CC(C)Cc1sc(-c2cc(C(=O)O)ccn2)nc1-c1ccc(Cl)c(Cl)c1 [I-238]", "1000 to 10000 nM"],
  ["CC(=O)NS(=O)(=O)CCN(Cc1ccccc1)c1nc(-c2ccc(Cl)c(Cl)c2)c(CC(C)C)s1 [I-99]", "1000 to 10000 nM"],
  ["CS(=O)(=O)c1sc(NCC(Cc2ccccc2)C(=O)O)nc1-c1ccc(Cl)c(Cl)c1 (stereo not drawn) [I-181]", "> 10000 nM"],
  ["CC(C)Cc1sc(NCC(Cc2cccc(S(C)(=O)=O)c2)C(=O)O)nc1-c1ccc(Cl)c(Cl)c1 (stereo not drawn) [I-172]", "1000 to 10000 nM"],
  ["CC(C)Cc1sc(N(CCC(=O)O)Cc2ccccc2)nc1-c1cc(F)c(F)c(F)c1 [I-81]", "1000 to 10000 nM"]
]}

* * *

target: Human eIF4E (aa 28-217) / biotin labeled 4G2 peptide (Homo sapiens (Human), UniProt P06730); experiment: Human eIF4E/4G2 binding assay (TR-FRET); settings: Human eIF4E/4G2 TR-FRET binding assay; head says IC50, legend says EC50
pIC50: −log10 of the molar value.
Entries and their pIC50

{"columns": ["compound", "pIC50"],
 "data": [
  ["O=C(O)CCN(Cc1ccccc1)c1nc(-c2ccc(Cl)c(Cl)c2)c(C2CC2)s1", "5.00 to 6.00"],
  ["Cc1cc(CC(CNc2nc(-c3ccc(Cl)c(Cl)c3)c(CC(C)C)s2)C(=O)O)cc(C)n1 (stereo not shown)", "5.00 to 6.00"],
  ["CC(C)Cc1sc(-c2ccc(-c3ccccc3)c(C(=O)O)c2)nc1-c1ccc(Cl)c(Cl)c1", "≥ 6.00"],
  ["CC(C)c1sc(N(CCC(=O)O)Cc2ccccc2)nc1-c1ccc(Cl)c(Cl)c1", "≥ 6.00"]
]}

* * *

Entries and their pIC50
biological target: Human eIF4E (aa 28-217) / biotin labeled 4G2 peptide (Homo sapiens (Human)); assay: Human eIF4E/4G2 binding assay (TR-FRET); settings: Human eIF4E/4G2 TR-FRET binding assay; head says IC50, legend says EC50
pIC50: −log10 of the molar value.

{"columns": ["compound", "pIC50"],
 "data": [
  ["CC(C)Cc1sc(N(CCC(=O)O)Cc2ccc(Cl)cc2)nc1-c1ccc(Cl)c(Cl)c1 [I-109]", "5.00 to 6.00"],
  ["COC(=O)c1ccc(Nc2nc(-c3ccc(Cl)c(Cl)c3)c(CC(C)C)s2)o1 [I-288]", "< 5.00"],
  ["CC(C)c1sc(Nc2ncc(C(F)(F)F)cc2C(=O)O)nc1-c1ccc(Cl)cc1Cl [I-323]", "≥ 6.00"],
  ["Cc1ccc(CC(CNc2nc(-c3ccc(Cl)c(Cl)c3)c(CC(C)C)s2)C(=O)O)c(C)n1 (stereo not shown) [I-157]", "5.00 to 6.00"]
]}

* * *

biological target: Human eIF4E (aa 28-217) / biotin labeled 4G2 peptide (Homo sapiens (Human)); assay: Human eIF4E/4G2 binding assay (TR-FRET); details: Human eIF4E/4G2 TR-FRET binding assay; head says IC50, legend says EC50
pIC50: −log10 of the molar value.
Entries and their pIC50

{"columns": ["compound", "pIC50"],
 "data": [
  ["CC(C)Cc1sc(Nc2ncccc2C(=O)O)nc1-c1ccc(Cl)c(Cl)c1 [I-233]", "≥ 6.00"],
  ["CNC(=O)CCN(Cc1ccccc1)c1nc(-c2ccc(Cl)c(Cl)c2)c(CC(C)C)s1 [I-200]", "< 5.00"],
  ["CNC(=O)c1cccc(CC(CNc2nc(-c3ccc(Cl)c(Cl)c3)c(CC(C)C)s2)C(=O)O)c1 (stereo not drawn) [I-169]", "5.00 to 6.00"],
  ["CC(C)Cc1sc(N(CCC(=O)O)Cc2ccccc2)nc1-c1ccc(S(C)(=O)=O)cc1 [I-128]", "< 5.00"],
  ["CC(C)Cc1sc(N(CCC(=O)O)CC(N)=O)nc1-c1ccc(Cl)c(Cl)c1 [I-64]", "5.00 to 6.00"],
  ["CC(C)Cc1sc(N(CCC(=O)NCCN)Cc2ccccc2)nc1-c1ccc(Cl)c(Cl)c1 [I-131]", "5.00 to 6.00"],
  ["COc1cccc(-c2nc(NCC(Cc3cccc4[nH]ccc34)C(=O)O)sc2C(C)C)c1 (stereo not drawn) [I-35]", "5.00 to 6.00"],
  ["CC(C)Cc1sc(N(CCCO)CCC(=O)O)nc1-c1ccc(Cl)c(Cl)c1 [I-70]", "5.00 to 6.00"],
  ["CC(C)Cc1sc(N(CCC(=O)O)CCN(C)C)nc1-c1ccc(Cl)c(Cl)c1 [I-72]", "< 5.00"]
]}

* * *

Entries and their IC50
biological target: Human eIF4E (aa 28-217) / biotin labeled 4G2 peptide (Homo sapiens (Human)); assay: Human eIF4E/4G2 binding assay (TR-FRET); conditions: Human eIF4E/4G2 TR-FRET binding assay; head says IC50, legend says EC50
outcome_measure: IC50

{"columns": ["compound", "value_measured"],
 "data": [
  ["CC(C)Cc1sc(Nc2ccc(Cl)c(C(=O)O)c2)nc1-c1ccc(Cl)c(Cl)c1", "≤ 1000 nM"],
  ["CC(C)Cc1sc(N(CCc2nnn[nH]2)Cc2ccccc2)nc1-c1ccc(Cl)c(Cl)c1", "≤ 1000 nM"],
  ["CC(C)Cc1sc(N(CCC(=O)O)CC2CC2)nc1-c1ccc(Cl)c(Cl)c1", "1000 to 10000 nM"],
  ["CC(C)Cc1sc(N(CCC(=O)O)Cc2ccccc2)nc1-c1cccc(F)c1", "1000 to 10000 nM"],
  ["COc1ccc(-c2nc(Nc3ncc(C(F)(F)F)cc3C(=O)O)sc2C(C)C)cc1Cl", "≤ 1000 nM"],
  ["CC(C)c1sc(Nc2ncccc2C(=O)O)nc1-c1ccc(Cl)c(Cl)c1", "≤ 1000 nM"],
  ["CC(C)c1sc(Nc2ncc(-c3ccccc3)cc2C(=N)N)nc1-c1ccc(Cl)c(Cl)c1", "> 10000 nM"],
  ["CC(C)Cc1sc(NCC(NC(=O)OC(C)(C)C)C(=O)O)nc1-c1ccc(Cl)c(Cl)c1 (stereo not drawn)", "1000 to 10000 nM"],
  ["CC(C)Cc1sc(N(CCC(=O)O)Cc2ccccc2)nc1-c1ccc(Cl)c(Cl)c1", "≤ 1000 nM"]
]}
